The compounds listed here are annotated with their Pre-emergence efficacy against KCHSC.
# Test system: Kochia scoparia (KCHSC)
# TEST: A. Herbicidal pre-emergence efficacy, KCHSC
# Type: in vivo
# CONDITION_LABEL: pre-emergence, dosage 320 g/ha
Please reply with the bare figure in % and do not write the unit itself.

## Input For the compound shown here, COCCS(=O)(=O)Oc1c(F)cccc1Oc1ncc(Cl)cn1 , give the reported Pre-emergence efficacy against KCHSC.
## Output 90

## Input For the compound shown here, CS(=O)(=O)Oc1ccccc1Oc1ncc(Cl)cn1 , give the reported Pre-emergence efficacy against KCHSC.
## Output 100

## Input For the compound shown here, C=CCCS(=O)(=O)Oc1c(F)cccc1Oc1ncc(Cl)cn1 , give the reported Pre-emergence efficacy against KCHSC.
## Output 100

## Input For the compound shown here, CC(C)CCS(=O)(=O)Oc1ccccc1Oc1ncc(Cl)cn1 , give the reported Pre-emergence efficacy against KCHSC.
## Output 100

## Input For the compound shown here, CCS(=O)(=O)Oc1ccccc1Oc1ncc(Cl)cn1 , give the reported Pre-emergence efficacy against KCHSC.
## Output 100

----------
# Tested on: Echinochloa crus-galli (ECHCG)
# TEST: A. Herbicidal pre-emergence efficacy, ECHCG
# Type: in vivo
# CONDITION_LABEL: 80 g/ha; scored visually after about 3 weeks vs untreated controls
The compounds listed here are annotated with their Pre-emergence efficacy against ECHCG.
Please reply with the bare figure in % and do not write the unit itself.

[[record]]
input_smiles = "O=S(=O)(CCCC(F)(F)F)Oc1ccccc1Oc1ncc(Cl)cn1"
readout_value = 100

[[record]]
input_smiles = "O=S(=O)(CCCC(F)F)Oc1c(F)cccc1Oc1ncc(Cl)cn1"
readout_value = 100


## Input For the compound shown here, O=S(=O)(CCCCl)Oc1ccccc1Oc1ncc(Cl)cn1 , give the reported Pre-emergence efficacy against ECHCG.
## Output 90

## Input For the compound shown here, O=S(=O)(CC1CC(F)(F)C1)Oc1c(F)cccc1Oc1ncc(Cl)cn1 , give the reported Pre-emergence efficacy against ECHCG.
## Output 100

## Input For the compound shown here, O=S(=O)(CCCC(F)(F)F)Oc1c(F)cccc1Oc1ncc(Cl)cn1 , give the reported Pre-emergence efficacy against ECHCG.
## Output 90

## Input For the compound shown here, O=S(=O)(CCC(F)(F)F)Oc1ccccc1Oc1ncc(Cl)cn1 , give the reported Pre-emergence efficacy against ECHCG.
## Output 90

----------
# System: Pharbitis purpurea (PHBPU)
# TEST: E. Herbicidal post-emergence efficacy, PHBPU
# Assay type: in vivo
# CONDITION_LABEL: application rate 320 g/ha
ATTRIBUTE_MEASURED: Post-emergence efficacy against PHBPU in % (%)
Please reply with the bare figure in % and do not write the unit itself.

[[record]]
compound = "O=S(=O)(CCC(F)(F)F)Oc1c(F)cccc1Oc1ncc(Br)cn1 [Example I-40]"
readout_value = 100

[[record]]
compound = "O=S(=O)(CCC(F)(F)F)Oc1c(F)cccc1Oc1ncc(Cl)cn1 [Example I-48]"
readout_value = 100


## Input For the compound shown here, O=S(=O)(CCC(F)(F)F)Oc1c(Cl)cccc1Oc1ncc(Br)cn1 [Example I-32] , give the reported Post-emergence efficacy against PHBPU in %.
## Output 80

## Input For the compound shown here, O=S(=O)(CCCC(F)F)Oc1c(F)cccc1Oc1ncc(Cl)cn1 [Example I-56] , give the reported Post-emergence efficacy against PHBPU in %.
## Output 100

## Input For the compound shown here, Cc1cccc(OS(=O)(=O)CCCCl)c1Oc1ncc(Cl)cn1 [Example I-12] , give the reported Post-emergence efficacy against PHBPU in %.
## Output 90

## Input For the compound shown here, O=S(=O)(CCCCCl)Oc1ccccc1Oc1ncc(Cl)cn1 [Example I-15] , give the reported Post-emergence efficacy against PHBPU in %.
## Output 100
